Target: NB7+Caspase-8
Test: compound enhancement of TRAIL-induced cell killing – NB7 cells plus caspase-8, luminescence, panel, dose response (AID 652002)
Conditions: NB7 neuroblastoma +caspase-8, TRAIL sensitization, luminescence viability, with TRAIL, run 2, single replicate panel EC50
Checkbox rule: EC50 lower than 7 µM = True; EC50 not lower than 7 µM = False.

Is the reported EC50 for Clc1nc(Cl)c2ncn(-c3ccccc3)c2n1 strictly below 7 µM? False

Is it true that EC50 reported for CCOC(=O)c1sc(NC(=O)Nc2ccc(F)cc2)nc1C is less than 7 µM? False

Is it true that EC50 reported for Cc1nc(Cl)c2oc3ccccc3c2n1 is less than 7 µM? False

Hello, I'm reviewing records and need to know if EC50 of O=C1CCCCC1Sc1nnc(-c2ccc3c(c2)OCO3)o1 (centres undefined) is below 7 µM. Could you check? False

Could you please tell me whether EC50 recorded for CCCCCc1cc(=O)oc2c(C(CCN(CC)CC)c3cc(OC)c(OC)c(OC)c3)c(OC)cc(OC)c12 (centres undefined) is less than 7 µM? False

Here's an entry: CC(C)C[C@H](NC(=O)c1nc[nH]c1C(=O)N[C@@H](CC(C)C)C(=O)OCc1ccccc1)C(=O)OCc1ccccc1 . Is its EC50 below 7 µM? False

Could you please tell me whether EC50 recorded for NNC(=O)C1CCCn2c1nc1sc3c(c1c2=O)CCCC3 (centres undefined) is less than 7 µM? False

In the record for O=C(N/N=C/c1cccnc1)c1ccc2c(c1)OCO2 , is EC50 less than 7 µM? False

Regarding COc1cc(NC(=O)c2cncc(-c3ccc(C#N)cc3)c2)cc(C(=O)Nc2cccc(C(F)(F)F)c2)c1 , kindly confirm whether its EC50 is beneath 7 µM. False

Please state whether EC50 is below 7 µM for c1ccc(-c2cnc(-c3ccccn3)nn2)cc1 True

Is EC50 strictly under 7 µM for the entry COc1ccc(NS(=O)(=O)c2cccc(C(=O)N/N=C/c3c(F)c(F)c(F)c(F)c3F)c2)cc1 ? False

Decide: EC50 of O=C(NNC(=O)c1cc(OCC(F)(F)F)ccc1OCC(F)(F)F)c1ccc(Cl)c(Cl)c1 strictly below 7 µM? False

Check if EC50 falls below 7 µM for CC(C)(C)OC(=O)NCc1ccc(NC(=O)c2nc[nH]c2C(=O)N[C@@H](Cc2ccccc2)C(=O)OCc2ccccc2)cc1 . False

In the record for O=c1[nH]c(N/N=C\c2ccc3c(c2)OCO3)nc2ccccc12 , is EC50 less than 7 µM? False

Confirm or reject: EC50 of COc1ccc(/C=N/Nc2nc3ccccc3c(=O)n2-c2ccccc2)cc1OC lies strictly below 7 µM False

Just wondering, is EC50 of Cc1ccc(NC(=O)c2ccccc2O)cc1 below 7 µM? False

Confirm or reject: EC50 of CCCCCCc1cc2cc(S(=O)(=O)c3ccc(F)c(Cl)c3)c(=O)oc2cc1O lies strictly below 7 µM False

Does this compound meet the criterion EC50 < 7 µM? COC(=O)c1ccc(/C=C(\C#N)c2ccccn2)cc1 False

Say whether its EC50 is strictly beneath 7 µM. Entry: O=C1c2ccc3c4c(ccc(c24)C(=O)N1c1cccc(O)c1)C(=O)N(c1cccc(O)c1)C3=O False

Is 7 µM strictly greater than the compound's reported EC50? compound: CC(C)CCn1c(=O)c(C(=O)Nc2ccccc2S(N)(=O)=O)c(O)c2ccccc21 False

Say whether its EC50 is strictly beneath 7 µM. Entry: CCOC(=O)C(=C1Nc2ccccc2N1)n1c(-c2cccnc2)nc2ccccc21 False

Hello, I'm reviewing records and need to know if EC50 of COc1ccc(/C(C)=N/Nc2nncc3ccccc23)cc1 is below 7 µM. Could you check? False

Take the compound COc1cccc(NC(=O)c2ccc3c(c2)OCO3)c1 and say whether its EC50 is less than 7 µM. False

Please check: EC50 for CN(C)CCCN(C(=O)c1ccc(S(=O)(=O)N2CCCc3ccccc32)cc1)c1nc2ccc(F)cc2s1 , strictly under 7 µM or not? False

Record COC(=O)c1ccc(/C=C/c2nc3ccccc3c(=O)[nH]2)cc1 : is its EC50 strictly below 7 µM? False

Hello, I'm reviewing records and need to know if EC50 of CCOc1ccc(-c2cc(C(=O)N3CCC(C)CC3)c3ccccc3n2)cc1 is below 7 µM. Could you check? False

Below 7 µM on EC50? Entry CCCC1(CCC)C(=O)NC(=NCc2ccccc2)NC1=O False

# check: EC50 < 7 µM for COc1ccc(-c2cc(C(=O)OCC(=O)Nc3ccc4c(c3)OCO4)c3ccccc3n2)cc1 False

# TODO verify EC50 < 7 µM strictly for this compound: COc1cccc(NC(=O)Nc2nccc(C)n2)c1 True

Determine if Cc1ccc(N=C/C(C(=O)C(F)(F)F)=C(\O)c2cccs2)cc1 shows EC50 strictly lower than 7 µM. True

Confirm or reject: EC50 of CCCCc1nc(NCCN)c(C#N)c2c1CSC(C)(C)C2 lies strictly below 7 µM False

Dear reviewer, please state whether CCCCCCCn1c2c(c(=N)c3ccccc31)CCC2 has EC50 strictly beneath 7 µM. True

State whether 7 µM exceeds EC50 recorded for CN(C)c1ccc(N/C=C/C(=O)c2ccco2)cc1 . True

Is 7 µM strictly greater than the compound's reported EC50? compound: COc1ccc(-c2nc(-c3ccc(NC(=O)c4ccncc4)cc3)no2)cc1OC False

# strict comparison: is reported EC50 < 7 µM? input = COCCNc1c(-c2cc3ccc(C)c(C)c3[nH]c2=O)nc2ccccn12 True

Regarding COC(=O)CSc1nc2cc(C)ccc2cc1C#N , kindly confirm whether its EC50 is beneath 7 µM. False

Please state whether EC50 is below 7 µM for Cc1ccc2c(c1)-c1nc3ccccc3cc1C2=NC1CCCCC1 False

Recorded values, source PubChem BioAssay AID652002.
